Recorded solubility at 16 h, one value per entry.
Assay: Kinetic solubility
Assay type: physicochemical
Details: Dulbecco's phosphate buffer saline (DPBS), aqueous buffer, kinetic from dmso stock, DPBS pH 7.4, 25° C., 200 μM test compound
Entry rule: numbers only, all in µM.

Consider the worked cases shown below.
smiles: Cn1c(Nc2nc3ccc(C(F)(F)F)cc3o2)nc2cc(C(=O)NCCN3CCCC3)ccc21
solubility at 16 h [µM]: 2.8

smiles: COCCOc1ccc2nc(Nc3nc4cc(C(=O)NCCOCCO)ccc4n3C)oc2c1
solubility at 16 h [µM]: 7.7

smiles: Cn1c(Nc2nc3ccc(OC(F)F)cc3o2)nc2cc(C(=O)O)ccc21
solubility at 16 h [µM]: 16.2

smiles: Cn1c(Nc2nc3ccc(C(F)(F)F)cc3o2)nc2cc(C(=O)NCCOCCO)ccc21
solubility at 16 h [µM]: 8

smiles: Cn1c(Nc2nc3ccc(OC(F)(F)F)cc3o2)nc2cc(C(=O)NOCCO)ccc21
solubility at 16 h [µM]: 2.1

Which solubility at 16 h value is on record for `COCCNC(=O)c1ccc2c(c1)nc(Nc1nc3ccc(OCCO)cc3o1)n2C` ?
5.3

Entry `Cn1c(Nc2nc3ccc(OC(F)F)cc3o2)nc2cc(C(=O)NCCO)ccc21` : reported solubility at 16 h = ?
2

Quick check: solubility at 16 h of `COCCNC(=O)c1cc2nc(Nc3nc4ccc(OC(F)(F)F)cc4o3)n(C)c2cc1F` ?
0.3

Would you mind telling me what solubility at 16 h value was observed for `Cn1c(Nc2nc3ccccc3o2)nc2cc(C(=O)NCCO)ccc21` ?
11.7

----------
Assay: Kinetic solubility
Format: physicochemical
Settings: Dulbecco's phosphate buffer saline (DPBS), aqueous buffer, kinetic from dmso stock, DPBS pH 7.4, 25° C., 200 μM test compound
measure: solubility at 16 h

Recorded solubility at 16 h, per entry:
compound: Cn1c(Nc2nc3ccc(C(F)(F)F)cc3o2)nc2cc(C(=O)NCCN3CCCCC3)ccc21 [Example 37]
value.reported: < 2 µM

compound: CC(O)CNC(=O)c1ccc2c(c1)nc(Nc1nc3ccccc3o1)n2C (stereo not drawn) [Example 23]
value.reported: > 20 µM

compound: COCCONC(=O)c1ccc2c(c1)nc(Nc1nc3ccc(OC(F)(F)F)cc3o1)n2C [Example 127]
value.reported: < 2 µM

compound: Cn1c(Nc2nc3ccc(Cl)cc3o2)nc2cc(C(=O)NCCO)ccc21 [Example 97]
value.reported: < 5 µM

compound: CC(O)COCCNC(=O)c1ccc2c(c1)nc(Nc1nc3ccc(C(F)(F)F)cc3o1)n2C (stereo not drawn) [Example 38]
value.reported: < 2 µM

In the following, a different compound is considered.
Which solubility at 16 h value is on record for COCCONC(=O)c1ccc2c(c1)nc(Nc1nc3ccc(C(F)(F)F)cc3o1)n2C [Example 124] ?
< 2 µM
